Assay: LAP4-GFP expression modulators in yeast, confirmation, cell-based, cherry picks, flow cytometry, mother/daughter gates (AID 2271);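 also: ratio of sample to DMSO plate mean so 100% equals DMSO level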
Conditions: S. cerevisiae LAP4-GFP strain, 3 h, at 10 µM, stronger effect = higher value, 100 means same as DMSO control
measured-attribute: GFP response relative to DMSO (%)
Answers are plain numbers, in %.

Some solved cases for reference:
* Cc1ccc(NC(=O)ON=C2CCCC2)cc1 | 122
* CCSc1nnc(NC(=O)c2nc(S(=O)(=O)Cc3ccc(F)cc3)ncc2Cl)s1 | 103
* CC(=O)Nc1ccc(NC(=O)c2ccccc2F)cc1 | 94.4
* Oc1ccc(/C=N/Nc2nc(-c3cccnc3)nc3ccccc23)c(O)c1 | 83.8

Dear colleague, could you send me GFP response relative to DMSO for each of the items below? Thanks.
1. COc1ccc(C(=O)/C=C2/C(=O)Nc3ccccc32)c(OC)c1
2. Cc1cc(NCCCN2CCOCC2)n2nc(C)c(-c3ccccc3)c2n1

Result ::
[136, 100]

* * *

Test: LAP4-GFP expression modulators in yeast, confirmation, cell-based, cherry picks, flow cytometry, mother/daughter gates (AID 2271);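 also: ratio of sample to DMSO plate mean so 100% equals DMSO level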
Settings: S. cerevisiae LAP4-GFP strain, 3 h, at 10 µM, 100 means same as DMSO control
Activity calls are given as the source filed them.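 The calls were made as follows: active = GFP response above 150% of the DMSO control; inconclusive = fewer than 70 events counted in any yeast strain; inactive = the rest.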
Respond using exactly one of the listed classes: active, inactive

• O=C(O)Cc1sc(Nc2ccc(F)cc2)nc1-c1cccs1 = inactive
• CCCCOc1ccc(C(=O)N2CCN(c3ccc(N4CCOCC4)nn3)CC2)cc1 = inactive
• O=C(O)c1ccc(Sc2ccccn2)c([N+](=O)[O-])c1 = inactive

Query :: I would be grateful if you could indicate the recorded call for C[C@]12CCC(=O)C=C1CC[C@@H]1[C@@H]2C(=O)C[C@@]2(C)[C@H]1CC[C@]2(O)C(=O)CO .
Result :: inactive

Query :: I would be grateful if you could indicate the recorded call for O=C(O)CCC(=O)OCC1CCCCC1 .
Result :: inactive

Query :: I would be grateful if you could indicate the recorded call for COc1ccc(/C=C2/C(=O)ON=C2c2ccccc2)cc1OC .
Result :: inactive

Query :: I would be grateful if you could indicate the recorded call for CCOc1ccc(-c2nc(-c3ccc(OC)cc3)no2)cc1OCC .
Result :: inactive

Query :: I would be grateful if you could indicate the recorded call for Cc1ccc(C(=O)N/C(=C/c2ccco2)C(=O)N2CCOCC2)cc1 .
Result :: inactive

Query :: I would be grateful if you could indicate the recorded call for CCOc1ccc(N/N=C(/C#N)C(N)=O)cc1 .
Result :: active

Query :: I would be grateful if you could indicate the recorded call for COc1cccc(C(=O)Nc2ccc(NC(=O)c3cc4ccccc4o3)c(OC)c2)c1 .
Result :: inactive

* * *

Target: Beta-adrenergic receptor kinase 1 (Homo sapiens)
Assay: GRK2 binders displacing RNA aptamer, biochemical, validation, human GRK2, bead flow cytometry (AID 488806)
Conditions: bead-bound GRK2, FAM-aptamer displacement, at 10 µM, stronger effect = higher value
measured-attribute: aptamer binding inhibition (%)
Numbers only, in %.

Some solved cases for reference:
* CC1(C)Cc2ccccc2C(C(Cc2ccccc2)C(N)=O)=N1 (configuration not stated) | 3
* O=C(CC(C(=O)O)c1c[nH]c2ccccc12)c1ccccc1 (configuration not stated) | 4
* CC(C)COc1ccc(Cc2cnc(N)nc2N)cc1 | 0
* COc1ccc(N2C(=O)C3CCCN3C2=O)cc1 (configuration not stated) | -1

Dear colleague, could you send me aptamer binding inhibition for each of the items below? Thanks.
1. CC1/C(=C\c2ccc(Cl)cc2)C(=O)C2CC1C2(C)C (configuration not stated)
2. CC(C)c1ccc2[nH]c3c(c2c1)CCCC3=O
3. Cc1ccccc1OCCSc1nc2ncnc(N)c2[nH]1

Result ::
2
2
2
